test system: intestinal alkaline phosphatase [Mus musculus]; assay: inhibitors of mouse IAP, primary screen, biochemical, luminescence, uHTS (AID 2806); conditions: purified mouse IAP, CDP-Star luminescence, 30 min; at 10 µM
In all, about 330,000 compounds went through this assay and about 660 (0.2%) were called active.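 The calls were made as follows: active = inhibition of at least 40% at 10 µM in the primary screen; inactive = the rest.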 This is one part of a sample in which actives are shown more often than they occur.
Reply using exactly one outcome from active, inactive

## Task Tell me the assay call for Cc1cc(C(=O)OCC(=O)Nc2c(F)cccc2F)c(C)n1C1CC1 please.
## Result inactive

## Task # outcome recorded in this test, key = CC1CCCCN1Cc1cccnc1 (stereo not given)
## Result inactive

## Task Short answer needed: outcome of this test for COc1ccc2c(c1)[C@]13CCCCC1C(C2)N(C)CC3 (stereo not given in full) ?
## Result inactive

## Task Lab log entry: COC(=O)C1=C(c2cc3ccccc3s2)C[C@@H]2CC[C@H]1N2C(=O)NCc1cccc2ccccc12 — outcome as called in the assay?
## Result inactive

## Task Please share the test call associated with COc1cccc(N2C(=O)NC(=O)/C(=C\c3ccc([N+](=O)[O-])s3)C2=O)c1 .
## Result inactive

## Task Field: outcome | Entry: COc1ccc(N2C(=O)/C(=C/c3ccco3)C(=O)NC2=S)cc1
## Result active

## Task For this molecule, state the assay outcome: O=C1NC(=O)N(Cc2ccco2)C(=O)/C1=C\c1cccn1CCOc1ccccc1
## Result active

## Task Kindly provide the recorded test outcome for the following molecule: O=C1NC(=O)N(c2ccccc2)C(=O)/C1=C/c1ccc([N+](=O)[O-])s1
## Result inactive

## Task Fill in: this test's call for CSc1ccc(C(=O)C2CCCN(Cc3ccn[nH]3)C2)cc1 (stereo not given) is ___
## Result inactive

## Task Name the outcome recorded for O=C1NC(=O)N(Cc2ccco2)C(=O)/C1=C\c1ccc(-c2ccc(F)cc2)o1 in the assay.
## Result active
